These entries and their values trace back to PubChem BioAssay.

Listed here are compounds together with their documented composite z-score.
- procedure_text: compound binding in COS7 lysate, probe aLAP1, primary screen, cell lysate, small-molecule microarray (AID 1124);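 note: lysate comes from COS7 cells expressing LAP1 and is applied at 0.3 µg/mL; score merges spot fluorescence near 667 nm with signal-to-noise over triplicate slides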
- experimental_parameters: probe aLAP1, fluorescence, higher = more signal
outcome_measure: composite z-score

COC(=O)CC=C[C@@H](C)[C@@H](C=NO[C@H](C)c1cn([C@H](CO)Cc2ccccc2)nn1)OC    0.456
O=C1CCCC=C1C(O)CCCCBr (configuration not stated)    -0.101
CC(C)C[C@H](NC(=O)CCC1CC(OC(=O)NCc2cccc3ccccc23)CC2(CCCC(COC(=O)NCc3ccccc3)O2)O1)C(=O)NCC(c1ccccc1)c1ccccc1 (some centres not stated)    1.09
CCOC(=O)[C@H](Cc1ccccc1)NC(=O)OC1CC(CCC2CC(CC)=NO2)OC2(CCCC(COC(=O)NCCC(C)C)O2)C1 (some centres not stated)    -0.342
CO[C@H]1COC(=O)CC=C[C@H](C)[C@@H](OC)COC(=O)[C@@H](C)NC(=O)CC=C[C@@H]1C    0.304
CC(C)=CCCC(C)=CCON=C1C[C@@H](O)[C@@H](O)[C@@H]2[C@@H]3C(=O)N(C[C@@H]4CCCO4)C(=O)[C@@H]3CC[C@H]12    -0.592
CCOC(=O)[C@H](CC(C)C)NC(=O)CCC1CC(OC(=O)NCCc2ccc(F)cc2)CC2(CCCC(COC(=O)NCCC(C)C)O2)O1 (some centres not stated)    -0.14

* * *

- procedure_text: binders of probe aFGF2 on microarray, primary screen, stem cell growth factor project, biochemical, small-molecule microarray, fluorescence 635/667 (AID 1067);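 note: measures binding of biotinylated aFGF2 protein to printed compounds on slides; z-score merges feature fluorescence and signal-to-noise across triplicate slides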
- experimental_parameters: higher = more signal
Listed here are compounds together with their documented composite z-score.
outcome_measure: composite z-score

CC(=O)OC[C@H]1O[C@H](CCON=C2[C@H]3CCn4c(=O)n(-c5ccccc5)c(=O)n4[C@H]3[C@H](O)[C@@H]3O[C@H]23)C=C[C@@H]1OC(C)=O    -0.0218
CCOC(=O)NN=C1C[C@@H](O)[C@@H](O)[C@@H]2[C@@H]3C(=O)N(c4ccc(F)cc4F)C(=O)[C@@H]3CC[C@@H]12    -0.0659
C[C@@H](c1ccccc1)N1C(=O)[C@H]2[C@H]3[C@H](O)[C@H](O)CC(=NO[C@@H]4O[C@H](CO)[C@@H](O)[C@H](O)[C@H]4O)[C@H]3CC[C@H]2C1=O    -0.0291
COC(=O)[C@@H]1CC[C@H](C)[C@@H](c2ccc(C)cc2)N1C(=O)c1ccc(C=NO[C@@H](C)c2cn([C@H](CO)Cc3ccccc3)nn2)cc1    -0.0943
O=C(NN=C1C[C@@H](O)[C@@H](O)[C@@H]2[C@@H]3C(=O)N(C4CCCCC4)C(=O)[C@@H]3CC[C@H]12)OCc1ccccc1    0.0679
COc1ccc(COC(=O)NN=C2C[C@@H](O)[C@@H](O)[C@@H]3[C@@H]4C(=O)N(C5CCCCC5)C(=O)[C@@H]4CC[C@H]23)cc1    -0.0784
CO[C@H]1COC(=O)CC=C[C@H](C)[C@@H](OC)COC(=O)[C@H](C)COC(=O)CC=C[C@@H]1C    -0.223

* * *

Listed here are compounds together with their documented composite z-score.
- Test system: Wnt5a (protein binding on small-molecule microarray)
- procedure_text: Wnt5a binders on small-molecule microarray, primary screen, biophysical, 635/667 nm fluorescence (AID 1142);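 note: fluorescence read at 667 nm with signal to noise per printed feature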
- experimental_parameters: 635 nm fluorescence, higher = more signal
outcome_measure: composite z-score

CC(C)CON=C1C[C@@H](O)[C@@H](O)[C@@H]2[C@@H]3C(=O)N(c4ccc(F)cc4F)C(=O)[C@@H]3CC[C@H]12    0.0062
CC(C)(C)N1C(=O)[C@H]2[C@H]3[C@H](O)[C@H](O)CC(=NOCc4ccccc4)[C@H]3CC[C@H]2C1=O    0.0771
CCOC(=O)CCN1C(=O)[C@H]2[C@H]3[C@H](O)[C@H](O)CC(=NOCc4ccccc4)[C@H]3CC[C@H]2C1=O    0.14
CCOC(=O)NN=C1C[C@@H](O)[C@@H](O)[C@@H]2[C@@H]3C(=O)N([C@@H](C)c4ccccc4)C(=O)[C@@H]3CC[C@H]12    0.0373
CON=C1[C@H]2CCn3c(=O)n(-c4ccccc4)c(=O)n3[C@H]2[C@H](O)[C@@H]2O[C@H]12    0.0275
O=C1CCCC=C1C(CCc1ccccc1)OC(=O)c1ccc(Br)cc1 (stereo not given)    -0.223
CC(=O)O[C@H]1C2=CO[C@H](C)[C@H]3[C@H]4C5=C([C@H](O)[C@H]6O[C@H]6C5=O)[C@H](OC4C)[C@@]23C(=O)[C@@H]2O[C@@H]21 (stereo not given in full)    0.25
CCOC(=O)NN=C1C[C@@H](O)[C@@H](O)[C@@H]2[C@@H]3C(=O)N(C(C)(C)C)C(=O)[C@@H]3CC[C@H]12    0.138
COC(=O)CC=C[C@@H](C)[C@@H](C=NO[C@@H](C)c1cn([C@H](CO)Cc2ccccc2)nn1)NS(=O)(=O)c1ccc(C)cc1    0.062
Cc1cc2c(nc1C)CCCCN2CC(C)ON=C[C@@H](C)[C@H](OCc1ccccc1)C(C)C (stereo not given in full)    -0.918
CCOC(=O)[C@H](Cc1ccccc1)NC(=O)CCC1CC(OC(=O)NCCc2ccc(F)cc2)CC2(CCCC(COC(=O)NCCc3ccc(Cl)cc3)O2)O1 (stereo not given in full)    0.108
C#CCCCON=C1C[C@@H](O)[C@@H](O)[C@@H]2[C@@H]3C(=O)N(C(C)(C)C)C(=O)[C@@H]3CC[C@H]12    -0.19
CCOC(=O)[C@H](Cc1ccccc1)NC(=O)CCC1CC(OC(=O)NCc2ccc3c(c2)OCO3)CC2(CCCC(COC(=O)NCCC(C)C)O2)O1 (stereo not given in full)    0.403
C[C@H]1COC(=O)[C@@H]2CCCN2C(=O)[C@@H](C)COC(=O)[C@H](Cc2ccccc2)NC1=O    0.0398
O=C1CCCC(C2=CCCCC2=O)C1 (stereo not given)    0.18

* * *

- system_tested: Follistatin (Homo sapiens)
- procedure_text: follistatin binders on small-molecule microarrays, primary screen, biochemical, small-molecule microarray, 635/667 nm fluorescence (AID 1132)
- experimental_parameters: FST binding, 635 nm fluorescence, higher = more signal
outcome_measure: composite z-score

COC(=O)CC=C[C@@H](C)[C@@H](C=NO[C@@H](C)c1cn([C@H](CO)Cc2ccccc2)nn1)OC    0.293
O=C1[C@H]2[C@H]3[C@H](O)[C@H](O)CC(=NOCc4ccccc4)[C@@H]3CC[C@H]2C(=O)N1c1ccc(F)cc1F    0.072
COc1cccc([C@H]2Oc3ccc(OC)cc3C(=NOC[C@@H](O)COCc3ccco3)[C@@H]2O)c1    -0.707
CCOC(=O)[C@H](CC(C)C)NC(=O)CCC1CC(OC(=O)NCc2cccc3ccccc23)CC2(CCCC(COC(=O)NCCCN3CCCC3=O)O2)O1 (stereo not given in full)    0.745
O=C(NN=C1C[C@@H](O)[C@@H](O)[C@@H]2[C@@H]3C(=O)N(C[C@@H]4CCCO4)C(=O)[C@@H]3CC[C@@H]12)OCc1ccccc1    0.5
CSCC[C@@H]1NC(=O)CC=C[C@@H](C)COC(=O)[C@@H](C)COC1=O    0.556
Cn1c(=O)n2n(c1=O)[C@H]1[C@H](O)[C@@H]3O[C@@H]3C(=NOCc3ccccc3)[C@H]1CC2    -0.104
Cc1cc2c(nc1C)CCCCN2CC(C)ON=C[C@@H](C)[C@H](OCc1ccccc1)C(C)C (stereo not given in full)    -1.88
COC(=O)[C@@H]1CC[C@H](C)[C@@H](c2ccc(C)cc2)N1C(=O)c1ccc(C=NO[C@H](C)c2cn([C@@H]3COC[C@H]3O)nn2)cc1    0.353
CC[C@@H](c1ccccc1)n1c(=O)n2n(c1=O)[C@H]1[C@H](O)[C@@H]3O[C@@H]3C(=NOC[C@@H](O)COCc3ccco3)[C@H]1CC2    0.361
C=CC[C@@H]1C=C[C@H](ON=C(C)CCC(=O)OC[C@H]2O[C@H](C#Cc3ccccc3)C=C[C@@H]2Oc2ccc(C)cc2)[C@@H](CO)O1    0.656
COC(=O)[C@@H]1CC[C@@H](C)[C@H](c2ccc(Br)cc2)N1    -0.177
C[C@H]1Cc2c(COc3ccccc3)nc3c(c2CO1)CN(CCOc1ccccc1)CC3    1.18
CC(C)CON=C1C[C@@H](O)[C@@H](O)[C@@H]2[C@@H]3C(=O)N(C4CCCCC4)C(=O)[C@@H]3CC[C@H]12    0.346
CC(C)=CCCC(C)=CCON=C1C[C@@H](O)[C@@H](O)[C@@H]2[C@@H]3C(=O)N(Cc4ccccc4)C(=O)[C@@H]3CC[C@@H]12    1.07
